Test system: MYB mRNA
Assay: Gene panel canonical junction qPCR assay, decrease in CJ mRNA, Table 3
Type: cell-based
Conditions: decrease in CJ mRNA levels, canonical junction qPCR, gene panel
pIC50: −log10 of the molar value. Structures can show the parent of a compound that is named as a salt.
# pIC50 annotations

Example entries begin here.
molecule="Cn1cc2cc(NC(=O)c3ccc(N4CCC(NC5CC5)CC4)c4cn(C)nc34)cc(CN3CCCS3(=O)=O)c2n1 [Compound 818, hydrochloride]" system="MYB mRNA" result="< 5.00"
molecule="COc1nc2c(C(=O)Nc3cc(C#N)c4nc(C)cn4c3)ccc(N3C[C@H](C)N[C@@H](C)C3)c2s1 [Compound 758]" system="MYB mRNA" result="> 7.00"
molecule="CCNC1CCN(c2cc(F)c(C(=O)Nc3cn4ccnc4nc3OC)c3nn(C)cc23)CC1 [Compound 692]" system="MYB mRNA" result="> 7.00"
molecule="COc1nc2c(C(=O)Nc3cc(OC)c4nn(C)cc4c3)ccc(N3C[C@H](C)N[C@@H](C)C3)c2s1 [Compound 784]" system="MYB mRNA" result="> 7.00"
molecule="Cc1cc2c(N3CCC(NC4CC4)CC3)ccc(C(=O)Nc3cc(CO)c4nn(C)cc4c3)n2n1 [Compound 858]" system="MYB mRNA" result="6.00 to 7.00"

Ask: Tell me the measured pIC50 of Cc1cn2cc(NC(=O)c3ccc(N4CCC(N)CC4)c4cn(C)nc34)nc2c(CNS(C)(=O)=O)n1 [Compound 865] , please.
Result: 5.00 to 6.00

Ask: Looking for the measured pIC50 of C=CCNC1CCN(c2cc(O)c(C(=O)Nc3cc(CNS(C)(=O)=O)c4nn(C)cc4c3)c3nn(C)cc23)CC1 [Compound 854] , can you help?
Result: 6.00 to 7.00

====

Tested on: MYB mRNA
Experiment: Gene panel canonical junction qPCR assay, decrease in CJ mRNA, Table 3
Format: cell-based
Conditions: decrease in canonical junction (CJ) mRNA, gene panel qPCR, Table 3
Description: Compounds described herein were used to modulate RNA transcript abundance in cells. The expression of a target mRNA was measured by detecting the formation of an exon-exon junction in the canonical transcript (CJ). A compound mediated exon-inclusion event was detected by observing an increase in formation of a new junction with an alternative exon (AJ). Real-time qPCR assays were used to detect these splicing switches and interrogate the potency of various compounds towards different target genes. […]
Attribute: IC50

Would you please look over these solved cases?
molecule=CCNC1CCN(c2ccc(C(=O)Nc3cc(Cc4ccccc4)c4nc(C)cn4c3)c3nn(C)cc23)CC1 system="MYB mRNA" result="< 100 nM"
molecule=CN[C@H]1CCN(c2c(O)cc(C(=O)Nc3cc(F)c4nc(C)cn4c3)c3nn(C)cc23)C1 system="MYB mRNA" result="1000 to 10000 nM"
molecule="COc1c(NC(=O)c2c(F)cc(N3CCC(NC4CC4)C4(CC4)C3)c3cn(C)nc23)cn2cc(C)nc2c1F (stereo not shown)" system="MYB mRNA" result="< 100 nM"

Now for another entry.
Ask: Quick one: IC50 of COCCN[C@@H]1CCN(c2ccc(C(=O)Nc3cc(F)c4nc(C)cn4c3)c3nn(C)cc23)C1 ?
Result: 100 to 1000 nM
